Molecular target: T1, human factor IX (human, UniProt P00740 47-461, 12 glutamic acid residues of the GLA domain are post-translationally γ-carboxylated)
T1 construct: Zymogen used as analyte in SPR, reconstituted at 1 mg/ml; also called FIX; Human FIX (MW ~55 KDa)
T1 sequence (P00740 47-461 limits assumed): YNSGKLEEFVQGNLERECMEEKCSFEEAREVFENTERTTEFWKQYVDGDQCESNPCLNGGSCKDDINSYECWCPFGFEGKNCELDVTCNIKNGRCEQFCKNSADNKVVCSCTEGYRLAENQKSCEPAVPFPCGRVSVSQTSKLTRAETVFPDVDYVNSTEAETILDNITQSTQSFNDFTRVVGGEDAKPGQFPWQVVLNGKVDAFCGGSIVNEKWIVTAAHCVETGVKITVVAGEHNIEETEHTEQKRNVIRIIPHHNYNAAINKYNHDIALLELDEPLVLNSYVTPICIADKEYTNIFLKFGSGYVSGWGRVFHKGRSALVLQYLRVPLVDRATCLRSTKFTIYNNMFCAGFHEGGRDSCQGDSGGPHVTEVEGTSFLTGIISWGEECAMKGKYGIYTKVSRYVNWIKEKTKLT
Assay: SPR as in Example 10, human FIX as analyte
For each of the binders below, state its kon.
Numbers only, in M⁻¹ s⁻¹.

Here's what some known entries look like.
BINDER	VALUE UNITS	kon
NINA-0436.0128 (antibody, V domains shown) VH: EVQLVESGGGFVQPGGSLRLSCAVSGFTFNSYWMSWVRQAPGKGLEWVANINQDGSEKFYVASVKGRFTMSRDNAKKSVYVQMNSLRAEDTAVYYCAREGYSSISYYGMDVWGQGTTVTVSS VL: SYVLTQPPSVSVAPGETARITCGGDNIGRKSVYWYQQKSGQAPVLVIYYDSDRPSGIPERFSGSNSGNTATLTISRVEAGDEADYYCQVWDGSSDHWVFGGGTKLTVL	M⁻¹ s⁻¹	146000
NINA-0128 (antibody, V domains shown) VH: EVQLVESGGGFVQPGGSLRLSCAVSGFTFNSYWMSWVRQAPGKGLEWVANINQDGSEKFYVASVKGRFTMSRDNAKKSVYVQMNSLRAEDTAVYYCAREGYSSSSYYGMDVWGQGTTVTVSS VL: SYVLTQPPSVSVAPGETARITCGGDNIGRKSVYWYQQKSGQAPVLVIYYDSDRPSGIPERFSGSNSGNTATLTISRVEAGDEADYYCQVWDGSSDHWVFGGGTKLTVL	M⁻¹ s⁻¹	137000
NINA-1172.0128 (antibody, V domains shown) VH: EVQLVESGGGFVQPGGSLRLSCAVSGFTFNSYWMSWVRQAPGKGLEWVANINQDGSRKFYVASVKGRFTMSRDNAKKSVYVQMNSLRAEDTAVYYCAREGYSSIKYYGMDVWGQGTTVTVSS VL: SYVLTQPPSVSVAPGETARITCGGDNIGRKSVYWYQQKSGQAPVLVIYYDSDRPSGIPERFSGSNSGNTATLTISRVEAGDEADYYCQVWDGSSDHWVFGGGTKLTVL	M⁻¹ s⁻¹	225000

What kon value was documented for this binder, NINA-1280.0128 (antibody, V domains shown) VH: EVQLVESGGGFVQPGGSLRLSCAVSGFRFNSYWMSWVRQAPGKGLEWVANINQDGSRKFYVASVKGRFTMSRDNAKKSVYVQMNSLRAEDTAVYYCAREGYSSIKYYGMDVWGQGTTVTVSS VL: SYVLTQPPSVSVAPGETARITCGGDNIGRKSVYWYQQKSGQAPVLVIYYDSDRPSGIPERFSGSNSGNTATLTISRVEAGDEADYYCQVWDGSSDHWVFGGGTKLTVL ?
192000
